assay: molar heat capacity at constant pressure; details: 302.15 K; 101.33 kPa; Crystal; Small sample (50 mg) DSC
Would you mind labelling by molar heat capacity at constant pressure? At or over 200 J/K/mol is Condition met, under is Condition not met.

Q: Does the reported molar heat capacity at constant pressure for OC[C@H](O)C(O)[C@@H](O)CO [L-(-)-arabitol] fall at or above the 200 J/K/mol mark?
Result: Condition met

Q: Is molar heat capacity at constant pressure for `OC[C@@H](O)[C@H](O)[C@@H](O)CO` at or above 200 J/K/mol?
Result: Condition met

Q: Please tell me: is the molecule `OC[C@@H](O)[C@@H](O)[C@H](O)[C@H](O)CO` at or over 200 J/K/mol in terms of molar heat capacity at constant pressure?
Result: Condition met

Q: Confirm if molar heat capacity at constant pressure reported for the molecule O[C@H]1[C@H](O)[C@@H](O)[C@H](O)[C@@H](O)[C@H]1O [cis-1,2,3,5-trans-4,6-cyclohexanehexol] is 200 J/K/mol or above.
Result: Condition met

Q: Decide: is the reported value of molar heat capacity at constant pressure for `OC[C@@H](O)[C@@H](O)CO` equal to or greater than 200 J/K/mol?
Result: Condition not met
